# recorded.conditions: buffer; pH 7.4; 200.0 µM
Kindly return True if reported solubility kinetic is no lower than 20 µg/mL; return False if it is lower.

1. Cc1cc(C)nc(SCC(=O)c2ccc(Cl)cc2)n1
True
2. NC(=O)C1CC(=O)N(CCc2ccc(F)cc2)C1 (stereo not given)
True
3. Cc1nc2ccc(NC(=S)N3CCOCC3)cc2nc1C
True
4. CCOc1ccc(NC(=O)C2CC3CCC2C3)cc1 (stereo not given)
False
5. CCC(=O)c1cc(F)ccc1OCC(=O)Nc1ccc2c(c1)OCCO2
False
6. COCc1cc(=O)[nH]c(/N=C(\N)Nc2cccc(Cl)c2)n1
False
7. CN(Cc1ccccc1)c1cc(Cl)nc(N)n1
True
8. OC(CN1CCCC(C(F)(F)F)C1)c1ccccc1 (stereo not given)
True
9. Cc1cccc(NC(=O)CN2CCCCCC2)c1
True
10. COP(=O)(OC)/C(C=O)=N/Nc1ccc([N+](=O)[O-])cc1
True
11. Cc1cc(C)nc(NC(=O)c2ccc(Cl)c([N+](=O)[O-])c2)n1
True
12. COc1ccc(C(=O)Nc2nc3ccc(OC)cc3s2)cc1
False
13. CCC(C)Nc1nc(N)c([N+](=O)[O-])c(N2CCCCCC2)n1 (stereo not given)
True
14. O=C(CNC(=O)c1ccc(Br)o1)NCc1cccc(Cl)c1
True
15. Cc1ccc(S(=O)(=O)N2CCOCC2)cc1C(=O)c1nccn1C
True
16. O=C1CSC(=S)N1c1cccc(O)c1
True
17. Cc1ccccc1CC1CCN(CCCNC(=O)Nc2ccccc2)CC1
True
18. CC(=O)Nc1ccc(S(=O)(=O)NCCC(=O)Nc2ncccc2C)cc1
True
19. CC(=O)c1ccc(OCc2cc([N+](=O)[O-])cc3c2OCOC3)cc1
False
20. CC(NCc1ccc(F)cc1)C(=O)NC1CCCCC1.O=C(O)C(=O)O (stereo not given)
True
21. COc1ccc(C(=O)Nc2ccc3nc(C)c(C)nc3c2)cc1
False
22. O=C(COC(=O)[C@@H]1CCCN1C(=O)c1cccs1)Nc1ccc(Br)cc1
False
23. Oc1ccc(/C=N/NC(=S)N2CCOCC2)cc1
True
24. O=C(O)CC1(CC(=O)NCc2ccc(C(F)(F)F)cc2)CCCCC1
True
25. Cc1ccc(N=CNc2ccc(C)cc2C)c(C)c1
True

---

Quick list: solubility kinetic per entry.
# recorded.conditions: buffer; pH 7.4; 200.0 µM
assay.metric: solubility kinetic (µg/mL)

1. O=C(O)C1CCCCC1C(=O)NC1C2CC3CC(C2)CC1C3 (stereo unspecified)
42.4
2. O=C1OC(c2ccc(Br)cc2)=N/C1=C\c1ccco1
2.4
3. CCN(CC)C(=S)Oc1c(Cl)cccc1Cl
2.2

---

Entries and their solubility kinetic values follow.
# recorded.conditions: buffer; pH 7.4; 200.0 µM
assay.metric: solubility kinetic

1) Cc1cc(OCC(=O)NCCN2CCOCC2)cc(C)c1Cl
> 49 µg/mL
2) CC(=O)Nc1ccc(S(=O)(=O)N2CC(=O)NC(=O)C2)cc1
> 46.7 µg/mL
3) O=C(O)CCCCCCCCCC[n+]1ccccc1.[Br-]
47.9 µg/mL
4) CC(C)n1c(SCC(=O)Nc2nncs2)nnc1C1CC1
> 48.7 µg/mL
5) CN(C)CCNC(=O)C(=O)Nc1cc2c3c(c1)CCN3C(=O)CC2
> 49.6 µg/mL
6) CC(C)C(NC(=O)CCN1C(=O)c2ccccc2C1=O)c1ccccc1 (configuration not stated)
18.3 µg/mL
7) Cc1ccc(OCC(=O)Nc2ccncc2)cc1
35.1 µg/mL
8) CCCc1cc(=O)[nH]c(SC/C=C/c2ccccc2)n1
1.9 µg/mL
9) O=S(=O)(O)c1nc2ccccc2[nH]1
> 29.7 µg/mL
10) CC12CCC(C(=O)Nc3ccc(Br)cn3)(OC1=O)C2(C)C (configuration not stated)
> 53 µg/mL
11) CC(=O)OCC(=O)Nc1ccccc1OC(F)F
> 38.9 µg/mL
12) CSCCCNC(=S)N1CCc2ccccc2C1
> 42.1 µg/mL
